Data origin: the supplement of paper PMC10307832

tested on: NCI-H1437; assay: relative viability (nuclei count vs DMSO), 5 days (fraction); higher = more cells survive; details: first compound 0.01 µM
measurement kind: relative viability

>>> value("CC(C)Oc1cc(Nc2nc(N[C@@H](C)c3ccc(F)cn3)ncc2Cl)n[nH]1 [AZ23] + Cc1nc(Nc2ncc(C(=O)Nc3c(C)cccc3Cl)s2)cc(N2CCN(CCO)CC2)n1 [Dasatinib] (partner 0.075 µM)")
0.354
>>> value("CC(C)Oc1cc(Nc2nc(N[C@@H](C)c3ccc(F)cn3)ncc2Cl)n[nH]1 [AZ23] + COc1cc2c(Oc3ccc(NC(=O)C4(C(=O)Nc5ccc(F)cc5)CC4)cc3F)ccnc2cc1OCCCN1CCOCC1 [Foretinib] (partner 0.25 µM)")
1.37
>>> value("CC(C)Oc1cc(Nc2nc(N[C@@H](C)c3ccc(F)cn3)ncc2Cl)n[nH]1 [AZ23] + C[C@]1(O)C[C@@H](c2nc(-c3ccc4ccc(-c5ccccc5)nc4c3)c3c(N)nccn32)C1 [Linsitinib] (partner 1 µM)")
1.07
>>> value("CC(C)Oc1cc(Nc2nc(N[C@@H](C)c3ccc(F)cn3)ncc2Cl)n[nH]1 [AZ23] + CS(=O)(=O)CCNCc1ccc(-c2ccc3ncnc(Nc4ccc(OCc5cccc(F)c5)c(Cl)c4)c3c2)o1 [Lapatinib] (partner 2 µM)")
0.729
>>> value("CC(C)Oc1cc(Nc2nc(N[C@@H](C)c3ccc(F)cn3)ncc2Cl)n[nH]1 [AZ23] + CC(=O)Nc1cccc(-n2c(=O)n(C3CC3)c(=O)c3c(Nc4ccc(I)cc4F)n(C)c(=O)c(C)c32)c1 [Trametinib] (partner 0.02 µM)")
0.503
>>> value("CC(C)Oc1cc(Nc2nc(N[C@@H](C)c3ccc(F)cn3)ncc2Cl)n[nH]1 [AZ23] + N=C(N)NC(=N)NCCc1ccccc1 [Phenformin] (partner 250 µM)")
0.298
>>> value("CC(C)Oc1cc(Nc2nc(N[C@@H](C)c3ccc(F)cn3)ncc2Cl)n[nH]1 [AZ23] + Cc1nc(NC(=O)N2CCC[C@H]2C(N)=O)sc1-c1ccnc(C(C)(C)C(F)(F)F)c1 [Alpelisib] (partner 2 µM)")
0.949
>>> value("CC(C)Oc1cc(Nc2nc(N[C@@H](C)c3ccc(F)cn3)ncc2Cl)n[nH]1 [AZ23] + O=C(CCCCCCC(=O)Nc1ccccc1)NO [Vorinostat] (partner 1 µM)")
0.981
>>> value("CC(C)Oc1cc(Nc2nc(N[C@@H](C)c3ccc(F)cn3)ncc2Cl)n[nH]1 [AZ23] + Cc1cc(Nc2cc(N3CCN(C)CC3)nc(Sc3ccc(NC(=O)C4CC4)cc3)n2)n[nH]1 [Tozasertib] (partner 0.1 µM)")
0.434
